# System: Huvec-12
# assayNotes: Cytotoxicity assay (CCK-8)
# Type: cell-based
# conditions: normal human umbilical vein endothelial cell line
Starred links: 1 amine or outer side, 2 acyl side, 3 side chain; linkers in the order of their positions; H or OH if unused. Non-standard residues stand in square brackets, D forms with d. Residues, ends and D or L forms follow the SMILES beside them. Groups on a side chain read outwards from the residue. X2 = COC(=O)[C@@H](NC(=O)[C@@H](C)C[C@@H](C(=O)[*:2])N(C)[*:1])[C@@H](C)O; Trp(1-(1,1-Me2-allyl)) = C=CC(C)(C)n1cc(C[C@H](N)C(=O)O)c2ccccc21; NMeGlu(4S-Me) = C[C@@H](C[C@@H](C(=O)[*:2])N(C)[*:1])C(=O)[*:3]; Tyr(3-NO2) = N[C@@H](Cc1ccc(O)c([N+](=O)[O-])c1)C(=O)O; Gly(E-crotyl) = C/C=C/C[C@H](N)C(=O)O; NMeL = CN[C@@H](CC(C)C)C(=O)O
endpointName: pIC50
Here pIC50 is given on a logarithmic scale as minus log10 of the concentration in mol/L.

{"compound": "C=CC(C)(C)n1cc(C[C@@H]2NC(=O)[C@H](C/C=C/C)NC(=O)[C@H](CC(C)C)NC(=O)[C@H](C[C@H](C)C(=O)N[C@@H](CCCNC(=N)N)C(=O)OC)N(C)C(=O)[C@H](C)NC(=O)[C@H](Cc3ccc(O)c([N+](=O)[O-])c3)NC(=O)[C@H](CC(C)C)N(C)C2=O)c2ccccc21 [Compound 4, ilamycin NJL4] (cyclo(A[NMeGlu(4S-Me)]([Arg-OMe])L[Gly(E-crotyl)][Trp(1-(1,1-Me2-allyl))][NMeL][Tyr(3-NO2)]))", "pIC50": 4.45}

Here is the next item to consider.
Req: Fill blank: measured pIC50 of the compound C=CC(C)(C)n1cc(C[C@@H]2NC(=O)[C@H](C/C=C/C)NC(=O)[C@H](CC(C)C)NC(=O)[C@H](C[C@H](C)C(=O)N[C@H](C(=O)OC)[C@@H](C)O)N(C)C(=O)[C@H](C)NC(=O)[C@H](Cc3ccc(O)c([N+](=O)[O-])c3)NC(=O)[C@H](CC(C)C)N(C)C2=O)c2ccccc21 [Compound 1, ilamycin NJL1] (cyclo(A[X2]L[Gly(E-crotyl)][Trp(1-(1,1-Me2-allyl))][NMeL][Tyr(3-NO2)])) is ____.
Resp: 4.99

* * *

Reported IC50 values are given for each entry in this list.
# Tested on: L02
# assayNotes: cells
# Format: cell-based
# conditions: normal human hepatic cell line
Starred links: 1 amine or outer side, 2 acyl side, 3 side chain; linkers in the order of their positions; H or OH if unused. Non-standard residues stand in square brackets, D forms with d. Residues, ends and D or L forms follow the SMILES beside them. Groups on a side chain read outwards from the residue. X2 = COC(=O)[C@@H](NC(=O)[C@@H](C)C[C@@H](C(=O)[*:2])N(C)[*:1])[C@@H](C)O; X4 = COC(=O)[C@H](CCSC)NC(=O)[C@@H](C)C[C@@H](C(=O)[*:2])N(C)[*:1]; Trp(1-(1,1-Me2-allyl)) = C=CC(C)(C)n1cc(C[C@H](N)C(=O)O)c2ccccc21; NMeGlu(4S-Me) = C[C@@H](C[C@@H](C(=O)[*:2])N(C)[*:1])C(=O)[*:3]; Tyr(3-NO2) = N[C@@H](Cc1ccc(O)c([N+](=O)[O-])c1)C(=O)O; Gly(E-crotyl) = C/C=C/C[C@H](N)C(=O)O; NMeL = CN[C@@H](CC(C)C)C(=O)O

{"compound": "C=CC(C)(C)n1cc(C[C@@H]2NC(=O)[C@H](C/C=C/C)NC(=O)[C@H](CC(C)C)NC(=O)[C@H](C[C@H](C)C(=O)N[C@@H](Cc3ccccc3)C(=O)OC)N(C)C(=O)[C@H](C)NC(=O)[C@H](Cc3ccc(O)c([N+](=O)[O-])c3)NC(=O)[C@H](CC(C)C)N(C)C2=O)c2ccccc21 [Compound 7, ilamycin NJL7] (cyclo(A[NMeGlu(4S-Me)]([Phe-OMe])L[Gly(E-crotyl)][Trp(1-(1,1-Me2-allyl))][NMeL][Tyr(3-NO2)]))", "result": "> 50 µM"}
{"compound": "C=CC(C)(C)n1cc(C[C@@H]2NC(=O)[C@H](C/C=C/C)NC(=O)[C@H](CC(C)C)NC(=O)[C@H](C[C@H](C)C(=O)O)N(C)C(=O)[C@H](C)NC(=O)[C@H](Cc3ccc(O)c([N+](=O)[O-])c3)NC(=O)[C@H](CC(C)C)N(C)C2=O)c2ccccc21 [ilamycin F, reference compound] (cyclo(A[NMeGlu(4S-Me)]L[Gly(E-crotyl)][Trp(1-(1,1-Me2-allyl))][NMeL][Tyr(3-NO2)]))", "result": "43.9 µM"}
{"compound": "C=CC(C)(C)n1cc(C[C@@H]2NC(=O)[C@H](C/C=C/C)NC(=O)[C@H](CC(C)C)NC(=O)[C@H](C[C@H](C)C(=O)N[C@H](C(=O)OC)[C@@H](C)O)N(C)C(=O)[C@H](C)NC(=O)[C@H](Cc3ccc(O)c([N+](=O)[O-])c3)NC(=O)[C@H](CC(C)C)N(C)C2=O)c2ccccc21 [Compound 1, ilamycin NJL1] (cyclo(A[X2]L[Gly(E-crotyl)][Trp(1-(1,1-Me2-allyl))][NMeL][Tyr(3-NO2)]))", "result": "6.5 µM"}

Here is the next item to consider.
Req: Quick check: IC50 on L02, item C=CC(C)(C)n1cc(C[C@@H]2NC(=O)[C@H](C/C=C/C)NC(=O)[C@H](CC(C)C)NC(=O)[C@H](C[C@H](C)C(=O)N[C@@H](CCSC)C(=O)OC)N(C)C(=O)[C@H](C)NC(=O)[C@H](Cc3ccc(O)c([N+](=O)[O-])c3)NC(=O)[C@H](CC(C)C)N(C)C2=O)c2ccccc21 [Compound 2, ilamycin NJL2] (cyclo(A[X4]L[Gly(E-crotyl)][Trp(1-(1,1-Me2-allyl))][NMeL][Tyr(3-NO2)])) ?
Resp: > 50 µM

* * *

# Test system: L02
# assayNotes: cells
# Assay type: cell-based
# conditions: normal human hepatic cell line
pIC50: −log10 of the molar value. Starred links: 1 amine or outer side, 2 acyl side, 3 side chain; linkers in the order of their positions; H or OH if unused. Non-standard residues stand in square brackets, D forms with d. Residues, ends and D or L forms follow the SMILES beside them. X11 = COC(=O)[C@H](Cc1c[nH]cn1)NC(=O)[C@@H](C)C[C@@H](C(=O)[*:2])N(C)[*:1]; Trp(1-(1,1-Me2-allyl)) = C=CC(C)(C)n1cc(C[C@H](N)C(=O)O)c2ccccc21; X1 = C[C@@H](C[C@@H](C(=O)[*:2])N(C)[*:1])C(=O)NCc1ccc(F)cc1; Tyr(3-NO2) = N[C@@H](Cc1ccc(O)c([N+](=O)[O-])c1)C(=O)O; Gly(E-crotyl) = C/C=C/C[C@H](N)C(=O)O; NMeL = CN[C@@H](CC(C)C)C(=O)O
Reported pIC50 values are given for each entry in this list.

{"molecule": "C=CC(C)(C)n1cc(C[C@@H]2NC(=O)[C@H](C/C=C/C)NC(=O)[C@H](CC(C)C)NC(=O)[C@H](C[C@H](C)C(=O)NCc3ccc(F)cc3)N(C)C(=O)[C@H](C)NC(=O)[C@H](Cc3ccc(O)c([N+](=O)[O-])c3)NC(=O)[C@H](CC(C)C)N(C)C2=O)c2ccccc21 [Compound 10, ilamycin NJL10] (cyclo(A[X1]L[Gly(E-crotyl)][Trp(1-(1,1-Me2-allyl))][NMeL][Tyr(3-NO2)]))", "targetOfAssay": "L02", "pIC50": "< 4.30"}

Req: Fill blank: measured pIC50 of the molecule C=CC(C)(C)n1cc(C[C@@H]2NC(=O)[C@H](C/C=C/C)NC(=O)[C@H](CC(C)C)NC(=O)[C@H](C[C@H](C)C(=O)N[C@@H](Cc3c[nH]cn3)C(=O)OC)N(C)C(=O)[C@H](C)NC(=O)[C@H](Cc3ccc(O)c([N+](=O)[O-])c3)NC(=O)[C@H](CC(C)C)N(C)C2=O)c2ccccc21 [Compound 5, ilamycin NJL5] (cyclo(A[X11]L[Gly(E-crotyl)][Trp(1-(1,1-Me2-allyl))][NMeL][Tyr(3-NO2)])) is ____.
Resp: < 4.30

* * *

# Tested on: L02
# assayNotes: cells
# Type: cell-based
# conditions: normal human hepatic cell line
pIC50: −log10 of the molar value. Starred links: 1 amine or outer side, 2 acyl side, 3 side chain; linkers in the order of their positions; H or OH if unused. Non-standard residues stand in square brackets, D forms with d. Residues, ends and D or L forms follow the SMILES beside them. Trp(1-(1,1-Me2-allyl)) = C=CC(C)(C)n1cc(C[C@H](N)C(=O)O)c2ccccc21; NMeGlu(4S-Me) = C[C@@H](C[C@@H](C(=O)[*:2])N(C)[*:1])C(=O)[*:3]; X9 = CSCCC(=O)Oc1ccc(C[C@H](N[*:1])C(=O)[*:2])cc1[N+](=O)[O-]; X12 = C[C@@H](C[C@@H](C(=O)[*:2])N(C)[*:1])C(=O)NCc1ccccc1; Tyr(3-NO2) = N[C@@H](Cc1ccc(O)c([N+](=O)[O-])c1)C(=O)O; Gly(E-crotyl) = C/C=C/C[C@H](N)C(=O)O; NMeL = CN[C@@H](CC(C)C)C(=O)O
Reported pIC50 values are given for each entry in this list.

Worked cases, answers included:
{"compound": "C=CC(C)(C)n1cc(C[C@@H]2NC(=O)[C@H](C/C=C/C)NC(=O)[C@H](CC(C)C)NC(=O)[C@H](C[C@H](C)C(=O)NCc3ccccc3)N(C)C(=O)[C@H](C)NC(=O)[C@H](Cc3ccc(O)c([N+](=O)[O-])c3)NC(=O)[C@H](CC(C)C)N(C)C2=O)c2ccccc21 [Compound 9, ilamycin NJL9] (cyclo(A[X12]L[Gly(E-crotyl)][Trp(1-(1,1-Me2-allyl))][NMeL][Tyr(3-NO2)]))", "targetOfAssay": "L02", "endpointName": "pIC50", "result": "< 4.30"}
{"compound": "COc1cccc2c1C(=O)c1c(O)c3c(c(O)c1C2=O)C[C@@](O)(C(=O)CO)C[C@@H]3O[C@H]1C[C@H](N)[C@H](O)[C@H](C)O1 [doxorubicin, reference compound]", "targetOfAssay": "L02", "endpointName": "pIC50", "result": 5.11}

Here is the next item to consider.
Req: Fill blank: measured pIC50 of the compound C=CC(C)(C)n1cc(C[C@@H]2NC(=O)[C@H](C/C=C/C)NC(=O)[C@H](CC(C)C)NC(=O)[C@H](C[C@H](C)C(=O)O)N(C)C(=O)[C@H](C)NC(=O)[C@H](Cc3ccc(OC(=O)CCSC)c([N+](=O)[O-])c3)NC(=O)[C@H](CC(C)C)N(C)C2=O)c2ccccc21 [Compound 18, ilamycin NJL18] (cyclo(A[NMeGlu(4S-Me)]L[Gly(E-crotyl)][Trp(1-(1,1-Me2-allyl))][NMeL][X9])) is ____.
Resp: < 4.30
